These data points were gathered from patent US20240368191A1.

Entries and their half-life at 0.5 μM
Test: Metabolic (microsomal) stability assay
Conditions: pooled liver microsomes, pH 7.4

CC1(C)CN(c2nc(OC[C@@]34CCCN3C[C@H](F)C4)nc3c(F)c(-c4ccc(F)c5sc(N)c(C#N)c45)c(Cl)cc23)CC2(CN(C(=O)n3cncn3)C2)O1 | > 10 min

Exam item: Specify reported half-life at 0.5 μM for the molecule shown: N#Cc1c(N)sc2c(F)ccc(-c3c(Cl)cc4c(N5CC6(CCCN(C(=O)n7cncn7)C6)C5)nc(OC[C@@]56CCCN5C[C@H](F)C6)nc4c3F)c12
Marked response: > 10 min

Exam item: Please report the measured half-life at 0.5 μM for N#Cc1c(N)sc2c(F)ccc(-c3c(Cl)cc4c(N5CCC6(CN(C(=O)n7cncn7)C6)C5)nc(OC[C@@]56CCCN5C[C@H](F)C6)nc4c3F)c12
Marked response: > 10 min

###

Test: Metabolic (microsomal) stability assay
Details: pooled liver microsomes, pH 7.4
Reported values of half-life at 0.5 μM for individual entries

A selection of reference data follows.
N#Cc1c(N)sc2c(F)ccc(-c3c(Cl)cc4c(O[C@@H]5CCN(C(=O)n6cncn6)C5)nc(OCC56CCCN5C[C@H](F)C6)nc4c3F)c12 (stereo partly shown) | > 10 min
N#Cc1c(N)sc2c(F)ccc(-c3c(Cl)cc4c(N5CCN(CC6CC6)C6(CN(C(=O)n7cncn7)C6)C5)nc(OC[C@@]56CCCN5C[C@H](F)C6)nc4c3F)c12 | > 10 min
Cc1ncn(C(=O)N2CC3(CCCN(c4nc(OC[C@@]56CCCN5C[C@H](F)C6)nc5c(F)c(-c6ccc(F)c7sc(N)c(C#N)c67)c(Cl)cc45)C3)C2)n1 | > 10 min

Exam item: Write down half-life at 0.5 μM measured for item C[C@H](Oc1nc(N2CCCCC3(CN(C(=O)n4cncn4)C3)C2)c2cc(Cl)c(-c3ccc(F)c4sc(N)c(C#N)c34)c(F)c2n1)[C@@H]1CCCN1C
Marked response: > 10 min

Exam item: Find the measured half-life at 0.5 μM of Nc1nc2c(-c3c(Cl)cc4c(N5CCN(C(=O)n6cncn6)CC5)nc(OC[C@@]56CCCN5C[C@H](F)C6)nc4c3F)ccc(F)c2s1 and report it.
Marked response: > 10 min

Exam item: Please list half-life at 0.5 μM recorded for the compound C#Cc1c(F)ccc2cc(O)cc(-c3ncc4c(N5CCOC6(CN(C(=O)n7cncn7)C6)C5)nc(OC[C@@]56CCCN5C[C@H](F)C6)nc4c3F)c12
Marked response: > 10 min

Exam item: Supply measured half-life at 0.5 μM of N#Cc1c(N)sc2c(F)ccc(-c3c(Cl)cc4c(N5CCCC6(CN(C(=O)n7cncn7)C6)C5)nc(OC[C@@]56CCCN5C[C@H](F)C6)nc4c3F)c12 in your reply.
Marked response: > 10 min

###

Known half-life at 0.5 μM of a selection of molecules
Assay: Metabolic (microsomal) stability assay
Conditions: pooled liver microsomes, pH 7.4

Cc1ncn(C(=O)N2CCCC(Oc3nc(OC[C@@]45CCCN4C[C@H](F)C5)nc4c(F)c(-c5ccc(F)c6sc(N)c(C#N)c56)c(Cl)cc34)CC2)n1 (stereo partly drawn) | > 10 min

Exam item: Hello, please tell me recorded half-life at 0.5 μM for this one: C[C@@H]1CN(C(=O)n2cncn2)[C@@H](C)CN1c1nc(OC[C@@]23CCCN2C[C@H](F)C3)nc2c(F)c(-c3ccc(F)c4sc(N)nc34)c(Cl)cc12
Marked response: > 10 min

Exam item: Determine from records and report half-life at 0.5 μM for Nc1nc2c(-c3c(Cl)cc4c(N5CCOC6(CN(C(=O)n7cncn7)C6)C5)nc(OC[C@@]56CCCN5C[C@H](F)C6)nc4c3F)ccc(F)c2s1
Marked response: > 10 min
